- Tested on: biotinyl-Val-oxazolone
- Assay: self-aminoacylation, catalytic enhancement (BVO) (fold over background); higher = more active; k-Seq, kA / k0A0; sequences stand for … in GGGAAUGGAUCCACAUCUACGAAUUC…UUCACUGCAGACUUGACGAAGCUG
Fewer inactive variants are shown than the library holds.
Listed next: entries and their corresponding self-aminoacylation.

>>> experimental_result("CCACACUUCAAGCAAUCCAUC [Fam1B.1 aminoacylation ribozyme variant]")
0.774
>>> experimental_result("AUUACCAUGGUCAUCGAGUCA [Fam2.1 aminoacylation ribozyme variant]")
0.778
>>> experimental_result("CCACACUUCACGUAAUCGGUC [Fam1B.1 aminoacylation ribozyme variant]")
0.914

Alright, here's another sequence for you.
### Prompt Check the records and state self-aminoacylation for ACGACCCUGGUCAUCGAGUGA [Fam2.1 aminoacylation ribozyme variant]
### Response 3.77

----------
- Test system: biotinyl-Val-oxazolone
- Assay: self-aminoacylation, catalytic enhancement (BVO) (fold over background); higher = more active; k-Seq, kA / k0A0; sequences stand for … in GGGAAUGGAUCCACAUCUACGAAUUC…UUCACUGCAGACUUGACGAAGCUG
Variants at the floor of the assay were thinned out.
Attribute Measured: self-aminoacylation
Output spec: single numeric token, no unit.

>>> experimental_result("CGACUUCAAACAAUCUGUCUG [Fam1A.1 aminoacylation ribozyme variant]")
0.86
>>> experimental_result("AUUCGCCUAGGUCAUCGAGUG [Fam2.2 aminoacylation ribozyme variant]")
7.39
>>> experimental_result("AUUCACCUAGGUCAUCGGCUC [Fam2.2 aminoacylation ribozyme variant]")
2.22

### Prompt Consider the sequence AAGUUUACUAAUAGUCGCUAG [Fam3.1 aminoacylation ribozyme variant] . State its measured self-aminoacylation.
### Response 1.23

----------
- Tested on: biotinyl-Val-oxazolone
- Assay: self-aminoacylation, catalytic enhancement (BVO) (fold over background); higher = more active; k-Seq, kA / k0A0; sequences stand for … in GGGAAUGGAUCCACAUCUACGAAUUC…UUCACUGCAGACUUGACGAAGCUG
Variants at the floor of the assay were thinned out.
Attribute Measured: self-aminoacylation

>>> experimental_result("CCAGACUUCAAGCAGUCGGUC [Fam1B.1 aminoacylation ribozyme variant]")
1.3
>>> experimental_result("AUUCACCUAUAUCAUCGGGUG [Fam2.2 aminoacylation ribozyme variant]")
2.56
>>> experimental_result("CCACACUUCAAGGAAUCUGUC [Fam1B.1 aminoacylation ribozyme variant]")
0.446

### Prompt Look up and report measured self-aminoacylation (biotinyl-Val-oxazolone) for the following sequence: AUUCACAUAGGUCAUGGGGUG [Fam2.2 aminoacylation ribozyme variant]
### Response 4.12

### Prompt Tell me self-aminoacylation of GUUCACCUCGGUCAUCGGGUG [Fam2.2 aminoacylation ribozyme variant] when tested on biotinyl-Val-oxazolone.
### Response 4.29

### Prompt Quote self-aminoacylation with test system biotinyl-Val-oxazolone for CUACUUCAAACAGUUGGUCUG [Fam1A.1 aminoacylation ribozyme variant]
### Response 0.736

### Prompt Answer with self-aminoacylation of GCACACUUCAAGUAAUCGGUC [Fam1B.1 aminoacylation ribozyme variant] measured for biotinyl-Val-oxazolone.
### Response 1.7

### Prompt Retrieve self-aminoacylation on biotinyl-Val-oxazolone; query CCCCACUUCAAGCACUCGGUC [Fam1B.1 aminoacylation ribozyme variant]
### Response 2.79

----------
Measured self-aminoacylation, listed per entry.
- Tested on: biotinyl-Trp-oxazolone
- Assay: self-aminoacylation, catalytic enhancement (BWO) (fold over background); higher = more active; k-Seq, kA / k0A0; sequences stand for … in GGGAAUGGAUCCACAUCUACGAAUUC…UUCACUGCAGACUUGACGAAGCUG
Fewer inactive variants are shown than the library holds.

### Prompt Provide self-aminoacylation, recorded with biotinyl-Trp-oxazolone, of AGUCACGUAGGUCAUCGGGUG [Fam2.2 aminoacylation ribozyme variant]
### Response 6.71

### Prompt State measured self-aminoacylation of the sequence AUCCCCCUGGUCAUCGAGUGA [Fam2.1 aminoacylation ribozyme variant] with biotinyl-Trp-oxazolone.
### Response 7.31

### Prompt Look up and report measured self-aminoacylation (biotinyl-Trp-oxazolone) for the following sequence: AUUCACAUAGGUCAUCGGGUA [Fam2.2 aminoacylation ribozyme variant]
### Response 3.56

### Prompt Return reported self-aminoacylation for target or system biotinyl-Trp-oxazolone, item GUUCACCUAGUUCAUCGGGUG [Fam2.2 aminoacylation ribozyme variant] .
### Response 4.15

### Prompt # return self-aminoacylation for CUUCACUUCAAGCAAUCGGUC [Fam1B.1 aminoacylation ribozyme variant] , test system: biotinyl-Trp-oxazolone
### Response 20.9

----------
- System: biotinyl-Leu-oxazolone
- Assay: self-aminoacylation, catalytic enhancement (BLO) (fold over background); higher = more active; k-Seq, kA / k0A0; sequences stand for … in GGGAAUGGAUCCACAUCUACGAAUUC…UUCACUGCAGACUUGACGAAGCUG
This sample holds only a part of the variants without activity.
Here, each record is paired with measured self-aminoacylation data.
Enter the number alone.

>>> experimental_result("CCACACUUCAAGCAAGCGUUC [Fam1B.1 aminoacylation ribozyme variant]")
0.516
>>> experimental_result("CUACACUUCUAGCAAUCGGUC [Fam1B.1 aminoacylation ribozyme variant]")
0.669
>>> experimental_result("CCACACUCCAAGAAAUCGGUC [Fam1B.1 aminoacylation ribozyme variant]")
0.848

### Prompt Return reported self-aminoacylation. Input sequence: AAGUUUGCUAAUAAUCGCAAA [Fam3.1 aminoacylation ribozyme variant]
### Response 1.09

----------
- System: biotinyl-Trp-oxazolone
- Assay: self-aminoacylation, catalytic enhancement (BWO) (fold over background); higher = more active; k-Seq, kA / k0A0; sequences stand for … in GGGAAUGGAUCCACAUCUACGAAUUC…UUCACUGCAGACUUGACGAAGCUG
Variants at the floor of the assay were thinned out.
Attribute Measured: self-aminoacylation

Record excerpt, results attached:
>>> experimental_result("AUUCACCUAGAUCAUCGCGUG [Fam2.2 aminoacylation ribozyme variant]")
5.99
>>> experimental_result("AAGUUUGCUACUAGCCGCAAG [Fam3.1 aminoacylation ribozyme variant]")
0.996
>>> experimental_result("CCACACUUCUAGCAAUCGGUU [Fam1B.1 aminoacylation ribozyme variant]")
1.12
>>> experimental_result("CUACUUCAAUCAUUCGGUCUG [Fam1A.1 aminoacylation ribozyme variant]")
1.13

Turning now to a further record.
### Prompt Give self-aminoacylation only, for AUUCACCUAGGUCAACGGGUA [Fam2.2 aminoacylation ribozyme variant] , using biotinyl-Trp-oxazolone data.
### Response 1.83

----------
- Test system: biotinyl-Phe-oxazolone
- Assay: self-aminoacylation, catalytic enhancement (BFO) (fold over background); higher = more active; k-Seq, kA / k0A0; sequences stand for … in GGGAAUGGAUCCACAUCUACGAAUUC…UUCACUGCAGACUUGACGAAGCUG
This sample holds only a part of the variants without activity.
Assign yes (1) whenever self-aminoacylation does not fall below 1; assign no (0) whenever it does.

Field: example entries. Status: answers known.
>>> group("CUACUUCACAAAAUCGGUCUG [Fam1A.1 aminoacylation ribozyme variant]")
"no (0)"
>>> group("AUUACCCGGGUAAUCGAGUGA [Fam2.1 aminoacylation ribozyme variant]")
"yes (1)"
>>> group("AUUCACCUAGGUCCUGGGGUG [Fam2.2 aminoacylation ribozyme variant]")
"yes (1)"

Let's switch to this sequence now.
### Prompt Test whether the sequence AUUCAGGUAGGUCAUCGGGUG [Fam2.2 aminoacylation ribozyme variant] records self-aminoacylation of 1 or higher.
### Response yes (1)

----------
- Test system: biotinyl-Leu-oxazolone
- Assay: self-aminoacylation, catalytic enhancement (BLO) (fold over background); higher = more active; k-Seq, kA / k0A0; sequences stand for … in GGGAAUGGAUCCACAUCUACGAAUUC…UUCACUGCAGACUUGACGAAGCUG
Variants at the floor of the assay were thinned out.
Catalogue of self-aminoacylation values
Quick one: just the number, no unit, thanks!

Illustrative cases are given below, each with its answer.
>>> experimental_result("CUACUUUAAGCAAUCGGUCUG [Fam1A.1 aminoacylation ribozyme variant]")
0.69
>>> experimental_result("CAAGUUCAAACAAUCGGUCUG [Fam1A.1 aminoacylation ribozyme variant]")
1.02
>>> experimental_result("AUUCACCUAGGGCGUCGGGUG [Fam2.2 aminoacylation ribozyme variant]")
2.92
>>> experimental_result("CCAGACUUUAAGCAAUCGGUC [Fam1B.1 aminoacylation ribozyme variant]")
0.94
>>> experimental_result("AUUCACCUUGGUCAGCGGGUG [Fam2.2 aminoacylation ribozyme variant]")
5.32
>>> experimental_result("CCACACUUCAGGCAAUCGUUC [Fam1B.1 aminoacylation ribozyme variant]")
0.585
>>> experimental_result("UUUACUCUGGUCAUCGAGUGA [Fam2.1 aminoacylation ribozyme variant]")
5.43
>>> experimental_result("UAGUUAGCUAAUAGUCGCAAG [Fam3.1 aminoacylation ribozyme variant]")
1.8
>>> experimental_result("CCACACUUCACGAAAUCGGUC [Fam1B.1 aminoacylation ribozyme variant]")
1.16
>>> experimental_result("CCAGACUUCAAGCAAUCUGUC [Fam1B.1 aminoacylation ribozyme variant]")
0.45

### Prompt Read the entry AUUCCCCUGGUCAUCGAUUGA [Fam2.1 aminoacylation ribozyme variant] and write its reported self-aminoacylation.
### Response 1.73
